Task for the reader: assign each of the following sequences its reported self-aminoacylation.
# Test system: biotinyl-Ile-oxazolone
# runDescription: self-aminoacylation, catalytic enhancement (BIO) (fold over background); higher = more active; k-Seq, kA / k0A0; sequences stand for … in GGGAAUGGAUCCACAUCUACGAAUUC…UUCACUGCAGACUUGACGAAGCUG
Fewer inactive variants are shown than the library holds.
Give a plain numeric answer without units written out.

Give self-aminoacylation for the following sequence: AUUCACCUAGGUCAUGUGGUG [Fam2.2 aminoacylation ribozyme variant]
2.18

Give self-aminoacylation for the following sequence: AUUACCCUGGUCAUCGGGUCA [Fam2.1 aminoacylation ribozyme variant]
3.61

Give self-aminoacylation for the following sequence: CAACACUUCAAGCAAUCGGUG [Fam1B.1 aminoacylation ribozyme variant]
3.09

Give self-aminoacylation for the following sequence: UCACACUUCAAGCAAUCCGUC [Fam1B.1 aminoacylation ribozyme variant]
0.955

Give self-aminoacylation for the following sequence: AUACUUCAAACAAUCGGUAUG [Fam1A.1 aminoacylation ribozyme variant]
0.925

Give self-aminoacylation for the following sequence: AUUCACCUACGACAUCGGGUG [Fam2.2 aminoacylation ribozyme variant]
2.48

Give self-aminoacylation for the following sequence: AACUUUGCUAAUAGUCGGAAG [Fam3.1 aminoacylation ribozyme variant]
1.43

Give self-aminoacylation for the following sequence: AAUACCCUGGGCAUCGAGUGA [Fam2.1 aminoacylation ribozyme variant]
1.8

Give self-aminoacylation for the following sequence: AUUGACCUAGGUAAUCGGGUG [Fam2.2 aminoacylation ribozyme variant]
3.19

Give self-aminoacylation for the following sequence: AUUCACCUAGGUCAUCGGUUG [Fam2.2 aminoacylation ribozyme variant]
1

Give self-aminoacylation for the following sequence: AAGUUUGCUUAUAGUCGCUAG [Fam3.1 aminoacylation ribozyme variant]
0.884

Give self-aminoacylation for the following sequence: AGGUUCGCUAAUAGUCGCAAG [Fam3.1 aminoacylation ribozyme variant]
2.82

Give self-aminoacylation for the following sequence: AAGUCUGCUAAAAGUCGCAAG [Fam3.1 aminoacylation ribozyme variant]
1.35

Give self-aminoacylation for the following sequence: UUUAACCUAGGUCAUCGGGUG [Fam2.2 aminoacylation ribozyme variant]
5.19

Give self-aminoacylation for the following sequence: AAGUUUCCUAUUAGUCGCAAG [Fam3.1 aminoacylation ribozyme variant]
1.29

Give self-aminoacylation for the following sequence: AUUCACCUAGGGCAUCGGGGG [Fam2.2 aminoacylation ribozyme variant]
2.98

Give self-aminoacylation for the following sequence: AUUCACCUAGGACAUCGGGAG [Fam2.2 aminoacylation ribozyme variant]
1.02

Give self-aminoacylation for the following sequence: CUAAUUCAAACAAUCGGUCAG [Fam1A.1 aminoacylation ribozyme variant]
0.602
